Each recorded value in this set is attributed to patent US9533952B2.

Molecular target: TRPA1 (Homo sapiens)
Experiment: Determination of TRPA1 activity in vitro (TRPA1 antagonism in vitro)
Conditions: procedure of Wei et al., Anesthesiology 111 (2009) 147-154
// classify(record): look up IC50 in ranges bottom: < 2 µM; middle: ≥ 2 µM and < 5 µM; top: ≥ 5 µM

Using the reported IC50, which band applies to C#CC(C)(C)NC(=O)c1cc(C)ccc1NC(C)C [Example 93] ? top

How about this molecule: C#CC(C)(C)NC(=O)c1cc(OC)c(OC)cc1NCC(C)C [Example 88] top

How about this molecule: C#CC(C)(C)NC(=O)c1ccsc1NCCCC [Example 130] middle

How about this molecule: C#CC(C)(C)NC(=O)c1cc(C(F)(F)F)ccc1NCC(F)F [Example 10] bottom

How about this molecule: C#CC(C)(NC(=O)c1cc(F)c(F)cc1NCC)C(C)C (stereo not shown) [Example 87] bottom

How about this molecule: C#CC(C)(C)NC(=O)c1ccc(C(F)(F)F)nc1NCC [Example 107] middle

How about this molecule: C#CC(C)(C)NC(=O)c1ccc(C#N)cc1NC1CCC1 [Example 37] middle

How about this molecule: C#CC(C)(C)NC(=O)c1cc(F)ccc1NC1CC1 [Example 91] top

How about this molecule: C#CC(C)(C)NC(=O)c1cc(OC(F)(F)F)ccc1NC [Example 85] top

How about this molecule: C#CC(C)(C)NC(=O)c1cc(C(F)F)cnc1NC1CC(F)(F)C1 [Example 152] middle

How about this molecule: C#CC(C)(CC)NC(=O)c1cccnc1Nc1cccc(F)c1 (stereo not shown) [Example 184] bottom

How about this molecule: C#CC(C)(C)NC(=O)c1cnccc1Nc1ccc(Cl)cc1 [Example 159] top

How about this molecule: C#CC(C)(C)NC(=O)c1cccnc1Nc1cc(Cl)cc(OC)c1 [Example 167] middle

How about this molecule: C#CC(C)(CC)NC(=O)c1cccnc1Nc1ccc(F)cc1F (stereo not shown) [Example 174] bottom

How about this molecule: C#CC(C)(C)NC(=O)c1cc(F)cnc1NCC(C)(F)F [Example 57] middle

How about this molecule: C#CC(C)(CC)NC(=O)c1cccnc1Nc1cc(F)cc(C#N)c1 (stereo not shown) [Example 187] bottom

How about this molecule: C#CC(C)(CC)NC(=O)c1cccnc1Nc1cc(Cl)cc(OC)c1 (stereo not shown) [Example 168] bottom

How about this molecule: C#CC(C)(C)NC(=O)c1ccc(C(F)(F)F)nc1NC1CC1 [Example 117] middle

How about this molecule: C#CC(C)(C)NC(=O)c1cc(I)ccc1NCCOC [Example 50] top

How about this molecule: C#CC(C)(C)NC(=O)c1ccc(C)cc1NCCC(F)(F)F [Example 94] bottom

How about this molecule: C#CC(C)(C)NC(=O)c1cc(F)cnc1Nc1cc(C)ns1 [Example 137] top

How about this molecule: C#CC(C)(C)NC(=O)c1ccc(Cl)nc1NCC [Example 113] top

How about this molecule: C#CC(C)(C)NC(=O)c1cc(F)cnc1NC(C)C(F)(F)F (stereo not shown) [Example 158] middle

How about this molecule: C#CC(C)(C)NC(=O)c1ccccc1NCCC(F)(F)F [Example 79] bottom

How about this molecule: C#CC(C)(C)NC(=O)c1ccc(C(F)(F)F)nc1NC1CCOCC1 [Example 115] middle

How about this molecule: C#CC(C)(C)NC(=O)c1cncnc1NCC(F)(F)C(F)(F)F [Example 132] top

How about this molecule: C#CC(CC)(CC)NC(=O)c1cc(Br)ccc1NCCOC [Example 43] bottom

How about this molecule: C#CC(C)(C)NC(=O)c1cccnc1Nc1ccc(F)c(OC)c1 [Example 193] top

How about this molecule: C#CC(C)(C)NC(=O)c1cc(C)ccc1NCCC(F)(F)F [Example 77] bottom

How about this molecule: C#CC(C)(C)NC(=O)c1cccnc1NCCCC [Example 100] top

How about this molecule: C#CC(C)(CC)NC(=O)c1cc(F)cnc1Nc1cccc(C#N)c1 (stereo not shown) [Example 178] bottom

How about this molecule: C#CC(C)(C)NC(=O)c1cc(F)cnc1NC1CC(F)(F)C1 [Example 156] bottom

How about this molecule: C#CC(C)(C)NC(=O)c1cc(Cl)cnc1Nc1ccccc1 [Example 129] bottom

How about this molecule: C#CC(C)(C)NC(=O)c1cc(F)ccc1NCC(F)(F)F [Example 22] top

How about this molecule: C#CC(C)(C)NC(=O)c1cccnc1NC(C)(C)C(F)(F)F [Example 125] middle

How about this molecule: C#CC(C)(C)NC(=O)c1cccnc1NC1CC(F)(F)C1 [Example 133] top

How about this molecule: C#CC(C)(C)NC(=O)c1cccnc1Nc1ccc(F)cc1F [Example 173] bottom

----------
Answer each item with its documented pIC50.
Target: TRPA1 (Homo sapiens, UniProt O75762)
Sequence (O75762 whole entry): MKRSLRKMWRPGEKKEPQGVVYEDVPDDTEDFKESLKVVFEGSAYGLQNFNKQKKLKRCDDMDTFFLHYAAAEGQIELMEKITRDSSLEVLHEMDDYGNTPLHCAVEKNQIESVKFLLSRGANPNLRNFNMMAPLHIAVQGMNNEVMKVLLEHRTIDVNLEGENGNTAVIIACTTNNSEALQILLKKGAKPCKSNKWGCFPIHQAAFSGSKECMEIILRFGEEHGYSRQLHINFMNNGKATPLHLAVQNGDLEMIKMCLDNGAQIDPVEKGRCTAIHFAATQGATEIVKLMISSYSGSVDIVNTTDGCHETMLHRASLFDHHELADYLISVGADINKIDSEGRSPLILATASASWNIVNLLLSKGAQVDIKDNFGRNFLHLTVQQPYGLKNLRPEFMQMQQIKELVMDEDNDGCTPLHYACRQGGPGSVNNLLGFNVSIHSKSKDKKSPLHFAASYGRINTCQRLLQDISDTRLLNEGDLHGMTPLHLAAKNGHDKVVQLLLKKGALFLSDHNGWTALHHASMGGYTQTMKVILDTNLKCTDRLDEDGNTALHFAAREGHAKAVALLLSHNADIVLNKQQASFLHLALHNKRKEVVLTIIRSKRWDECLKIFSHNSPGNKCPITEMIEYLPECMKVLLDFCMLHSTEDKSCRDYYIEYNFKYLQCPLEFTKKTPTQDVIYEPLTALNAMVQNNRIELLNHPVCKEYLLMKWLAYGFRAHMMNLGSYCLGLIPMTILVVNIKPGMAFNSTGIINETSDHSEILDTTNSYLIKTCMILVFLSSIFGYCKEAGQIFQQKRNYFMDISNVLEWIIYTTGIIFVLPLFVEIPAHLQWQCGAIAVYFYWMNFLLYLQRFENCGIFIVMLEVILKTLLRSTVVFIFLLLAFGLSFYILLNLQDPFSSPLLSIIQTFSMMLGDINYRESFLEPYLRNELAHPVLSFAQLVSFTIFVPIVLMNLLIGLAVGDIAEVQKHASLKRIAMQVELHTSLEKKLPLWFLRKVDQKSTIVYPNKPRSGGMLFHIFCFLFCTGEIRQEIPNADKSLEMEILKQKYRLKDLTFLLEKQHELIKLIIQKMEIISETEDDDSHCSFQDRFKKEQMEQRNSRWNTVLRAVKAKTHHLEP
Test: Determination of TRPA1 activity in vitro (TRPA1 antagonism in vitro)
Details: procedure of Wei et al., Anesthesiology 111 (2009) 147-154
// field semantics: pIC50 = negative decimal log of concentration (mol/L)

Request the reported pIC50 associated with C#CC(C)(C)NC(=O)c1cnc(C(F)(F)F)nc1NC(C)(C)C [Example 108] 5.30

How about this compound: C#CC(C)(C)NC(=O)c1cc(F)cc(F)c1NCCC(F)F [Example 135] 5.30

How about this compound: C#CC(C)(C)NC(=O)c1cnc(C(F)(F)F)nc1NC(C)(C)CC [Example 109] 5.29
